Numbers sourced from patent US20250270172A1.

# System Tested: 5-HT2B (Homo sapiens (Human))
# Sequence (P41595 whole entry): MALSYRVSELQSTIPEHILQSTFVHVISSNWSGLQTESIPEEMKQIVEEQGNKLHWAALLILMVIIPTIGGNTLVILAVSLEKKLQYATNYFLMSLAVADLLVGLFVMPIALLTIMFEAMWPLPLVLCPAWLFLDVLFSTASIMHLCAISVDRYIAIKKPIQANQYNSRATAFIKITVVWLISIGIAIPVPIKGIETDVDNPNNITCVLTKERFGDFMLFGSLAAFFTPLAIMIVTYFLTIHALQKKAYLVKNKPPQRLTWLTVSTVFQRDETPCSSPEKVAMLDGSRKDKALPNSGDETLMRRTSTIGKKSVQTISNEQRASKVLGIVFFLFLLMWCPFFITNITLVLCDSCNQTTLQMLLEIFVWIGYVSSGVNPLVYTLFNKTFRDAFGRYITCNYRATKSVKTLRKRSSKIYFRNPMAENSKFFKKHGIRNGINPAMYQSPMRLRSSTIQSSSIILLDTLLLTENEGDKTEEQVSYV
# Test: HTRF IP-One antagonist assay, 5-HT2B;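 further: clonal HEK293 line with low 5-HT2B expression (estimated 150-200 fmol/mg by radioligand binding), IP-One HTRF readout, 10-point curves from 10 µM in 5-fold steps, triplicate points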
# Measurement Parameters: HEK293 cells stably expressing receptor, inositol phosphate accumulation, 80 nM 5-HT in Assay Buffer
Reported Endpoint: IC50 (µM)
One number for each entry, in µM.

Use the examples below as a reference point.
- Smiles String: "Cc1ncnc(C)c1-c1cc(NC(=O)Cc2cncs2)ccc1OCCN1CCCC1"
  Reported Endpoint: "IC50"
  Unit: "µM"
  Observed Value: 100
- Smiles String: "Cc1ncnc(C)c1-c1cc(NC(=O)Cc2cncc(F)c2)ccc1OCCN1CCC1"
  Reported Endpoint: "IC50"
  Unit: "µM"
  Observed Value: 100

Give IC50 for all compounds that follow.
1. Cc1ncnc(C)c1-c1cc(NC(=O)C2(CF)CC2)ccc1OCCN1CCCC1
2. Cc1ccccc1C(=O)Nc1ccc(OCCN2CCC2)c(-c2c(C)ncnc2C)c1
3. Cc1ncnc(C)c1-c1cc(NC(=O)C2CC2)ccc1OC1CNC1
4. Cc1ncnc(C)c1-c1cc(NC(=O)C2(F)CC2)ccc1OCCN1CCC1
5. Cc1ncnc(C)c1-c1cc(NC(=O)c2cccc(C#N)c2)ccc1OCCN1CCC1
6. Cc1ncnc(C)c1-c1cc(NC(=O)c2ccccc2)ccc1OC1CNC1

9.37
5.4
100
100
2.89
100

Give IC50 for all compounds that follow.
1. Cc1ncnc(C)c1-c1cc(NC(=O)Cn2cccc2)ccc1OCCN1CCCC1
2. Cc1ncnc(C)c1-c1cc(NC(=O)c2c(F)cnn2C)ccc1OCCN1CCCC1
3. Cc1ncnc(C)c1-c1cc(NC(=O)c2ccccc2)ccc1OCCN1CCCC1

[100, 100, 100]

###

# System Tested: 5-HT2A (Homo sapiens (Human))
# Test: Radioligand binding assay, [^3H]5-HT competition, 5-HT2A
# Measurement Parameters: [^3H]5-HT radioligand, membranes of HEK293 cells expressing recombinant 5-HT2A; Ki from IC50 by Cheng-Prusoff; read-out: 5-HT2A serotonin binding Ki value
pKi: −log10 of the molar value.
# binarize pKi: threshold 8 inclusive, high side 1, low side 0

Example results:
- Smiles String: "Cc1ncnc(C)c1-c1cc(NC(=O)c2c(F)cnn2C)ccc1OC1CNC1"
  Assigned Label: 1
- Smiles String: "COc1cccc(C(=O)Nc2ccc(OCCN3CCC3)c(-c3c(C)ncnc3C)c2)c1"
  Assigned Label: 1
- Smiles String: "Cc1ncnc(C)c1-c1cc(NC(=O)C2(O)CC2)ccc1OCCN1CCCC1"
  Assigned Label: 0
- Smiles String: "Cc1ncnc(C)c1-c1cc(NC(=O)c2ccccc2)ccc1OC1CNC1"
  Assigned Label: 1

Moving on to another molecule below.
Assess whether reported pKi for "Cc1ncnc(C)c1-c1cc(NC(=O)c2cccc(C#N)c2)ccc1OCCN1CCC1" sits at 8 or higher. 1

###

# System Tested: 5-HT2A (Homo sapiens (Human), UniProt P28223)
# Sequence (P28223 whole entry): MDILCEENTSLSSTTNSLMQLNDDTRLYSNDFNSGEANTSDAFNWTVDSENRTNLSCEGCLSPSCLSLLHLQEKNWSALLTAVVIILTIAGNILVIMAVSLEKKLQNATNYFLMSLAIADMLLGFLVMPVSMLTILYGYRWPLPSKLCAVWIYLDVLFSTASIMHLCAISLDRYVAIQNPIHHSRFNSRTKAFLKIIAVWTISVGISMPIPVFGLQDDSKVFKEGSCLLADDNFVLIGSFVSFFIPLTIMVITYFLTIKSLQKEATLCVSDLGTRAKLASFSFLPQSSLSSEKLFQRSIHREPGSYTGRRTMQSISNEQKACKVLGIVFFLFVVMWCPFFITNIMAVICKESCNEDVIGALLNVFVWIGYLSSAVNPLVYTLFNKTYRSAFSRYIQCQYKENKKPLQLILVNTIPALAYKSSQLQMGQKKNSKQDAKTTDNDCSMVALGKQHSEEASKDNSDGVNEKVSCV
# Test: Radioligand binding assay, [^3H]5-HT competition, 5-HT2A
# Measurement Parameters: [^3H]5-HT radioligand, membranes of HEK293 cells expressing recombinant 5-HT2A; Ki from IC50 by Cheng-Prusoff; read-out: 5-HT2A serotonin binding Ki value
Reported Endpoint: pKi
Numbers only, as −log10 of the molar value.

Give pKi for all compounds that follow.
1. Cc1ncnc(C)c1-c1cc(NC(=O)C2(O)CC2)ccc1OC[C@H]1CCCCN1
2. Cc1ncsc1C(=O)Nc1ccc(OC[C@H]2CCCCN2)c(-c2c(C)ncnc2C)c1
3. Cc1ncnc(C)c1-c1cc(NC(=O)C2(F)CCOCC2)ccc1OC[C@H]1CCCCN1
4. Cc1ncnc(C)c1-c1cc(NC(=O)c2ccccc2)ccc1OC[C@H]1CCCCN1
5. Cc1ncnc(C)c1-c1cc(NC(=O)c2cccn2C)ccc1OC[C@H]1CCCCN1
6. COCCNCCOc1ccc(NC(=O)c2ccccc2)cc1-c1c(C)ncnc1C
7. Cc1ncnc(C)c1-c1cc(NC(=O)[C@H]2C[C@H](F)C2)ccc1OCCN1CCCC1

7.19
7.36
7.20
8.77
8.22
8.32
8.03

Give pKi for all compounds that follow.
1. CCOC1CC1C(=O)Nc1ccc(OCCN2CCC2)c(-c2c(C)ncnc2C)c1 (centres unmarked)
2. Cc1ncnc(C)c1-c1cc(NC(=O)c2ccn(C)n2)ccc1OCCN1CCCC1
3. Cc1ncnc(C)c1-c1cc(NC(=O)C2CC2)ccc1OC[C@H]1CCCN1
4. Cc1ncnc(C)c1-c1cc(NC(=O)c2c(F)cnn2C)ccc1OCCN1CCCC1
5. Cc1ncnc(C)c1-c1cc(NC(=O)C2CC2)ccc1OC[C@@H]1CCCN1
6. Cc1nc(CCC(=O)Nc2ccc(OCCN3CCCC3)c(-c3c(C)ncnc3C)c2)co1
7. CCN(CC)CCOc1ccc(NC(=O)C2CC2)cc1-c1c(C)ncnc1C
8. COCCN(C)CCOc1ccc(NC(=O)c2ccc(F)cc2)cc1-c1c(C)ncnc1C

1. 7.02
2. 6.11
3. 7.52
4. 8.41
5. 6.77
6. 7.71
7. 7.10
8. 8.08

Give pKi for all compounds that follow.
1. COCCNCCOc1ccc(NC(=O)c2cccc(OC)c2)cc1-c1c(C)ncnc1C
2. Cc1ncnc(C)c1-c1cc(NC(=O)C2CC2)ccc1OC[C@@H]1CCN1

1: 8.70; 2: 7.24

###

# System Tested: 5-HT2A (Homo sapiens (Human))
# Test: Radioligand binding assay, [^3H]5-HT competition, 5-HT2A
# Measurement Parameters: [^3H]5-HT radioligand, membranes of HEK293 cells expressing recombinant 5-HT2A; Ki from IC50 by Cheng-Prusoff; read-out: 5-HT2A serotonin binding Ki value
pKi: −log10 of the molar value.
# binarize pKi: threshold 8 inclusive, high side True, low side False

Example results:
- Smiles String: "Cc1ncnc(C)c1-c1cc(NC(=O)C2CC2)ccc1OCCN1CCN(C(=O)C(=O)O)CC1"
  Assigned Label: "False"
- Smiles String: "Cc1ncnc(C)c1-c1cc(NC(=O)c2cncc(F)c2)ccc1OCCN1CCCC1"
  Assigned Label: "False"
- Smiles String: "Cc1ncnc(C)c1-c1cc(NC(=O)CNC2CCCC2)ccc1OCCN1CCCC1"
  Assigned Label: "False"

Assess whether reported pKi for "CCOCC(=O)Nc1ccc(OCCN2CCCC2)c(-c2c(C)ncnc2C)c1" sits at 8 or higher. False

How about this compound: "Cc1noc(CC(=O)Nc2ccc(OCCN3CCCC3)c(-c3c(C)ncnc3C)c2)n1" False

How about this compound: "Cc1ncnc(C)c1-c1cc(NC(=O)c2cnoc2C)ccc1OC[C@H]1CCCCN1" False

###

# System Tested: 5-HT2A (Homo sapiens (Human))
# Test: Radioligand binding assay, [^3H]5-HT competition, 5-HT2A
# Measurement Parameters: [^3H]5-HT radioligand, membranes of HEK293 cells expressing recombinant 5-HT2A; Ki from IC50 by Cheng-Prusoff; read-out: 5-HT2A serotonin binding Ki value
Would you mind telling me the reported Ki of each entry?
Give bare numbers, in nM.

Use the examples below as a reference point.
- Compound: "Cc1ncnc(C)c1-c1cc(NC(=O)C2CC2)ccc1OCCN1CC(O)C1 [Compound 388]"
  System Tested: "5-HT2A (Homo sapiens (Human))"
  Unit: "nM"
  Ki: 13.7
- Compound: "Cc1ncnc(C)c1-c1cc(NC(=O)Cc2cccc(F)c2)ccc1OCCN1CCC1 [Compound 312]"
  System Tested: "5-HT2A (Homo sapiens (Human))"
  Unit: "nM"
  Ki: 0.813
- Compound: "Cc1ncnc(C)c1-c1cc(NC(=O)[C@H]2C[C@H]2F)ccc1O[C@@H]1CCCNC1 [Compound 410]"
  System Tested: "5-HT2A (Homo sapiens (Human))"
  Unit: "nM"
  Ki: 37.4

Give Ki for all compounds that follow.
1. Cc1ncnc(C)c1-c1cc(NC(=O)C2CC2)ccc1OCCN1CCC1 [Compound 344]
2. Cc1ncnc(C)c1-c1cc(NC(=O)c2ncncc2F)ccc1OCCN1CCC1 [Compound 333]

[6.53, 224]

Give Ki for all compounds that follow.
1. Cc1ncnc(C)c1-c1cc(NC(=O)Cn2cccn2)ccc1OCCN1CCCC1 [Compound 236]
2. Cc1ncnc(C)c1-c1cc(NC(=O)C2CC2)ccc1OCCN1CCN2C(=O)OCC2C1 (centres unmarked) [Compound 343]

[21.4, 48.4]

Give Ki for all compounds that follow.
1. Cc1ncnc(C)c1-c1cc(NC(=O)c2cnoc2)ccc1OC[C@H]1CCCCN1 [Compound 429]
2. CCCN(CCF)CCOc1ccc(NC(=O)C2CC2)cc1-c1c(C)ncnc1C [Compound 363]
3. Cc1ncnc(C)c1-c1cc(NC(=O)C2CC2)ccc1OC[C@H]1CCN1 [Compound 405]
4. Cc1cnoc1C(=O)Nc1ccc(OC[C@H]2CCCCN2)c(-c2c(C)ncnc2C)c1 [Compound 427]
5. Cc1ncnc(C)c1-c1cc(NC(=O)c2ccc(F)cn2)ccc1OCCN1CCCC1 [Compound 210]
6. COC1CCN(CCOc2ccc(NC(=O)C3CC3)cc2-c2c(C)ncnc2C)CC1 [Compound 351]

131
107
52.4
27.2
134
4.56
